Reference source for all entries: the RNAGym collection of RNA variant scans (doi:10.1073/pnas.2313332121)

Listing of entries alongside the reported polymerase ribozyme fitness (log ratio).
B1: TPR 5TU (parent)
chain: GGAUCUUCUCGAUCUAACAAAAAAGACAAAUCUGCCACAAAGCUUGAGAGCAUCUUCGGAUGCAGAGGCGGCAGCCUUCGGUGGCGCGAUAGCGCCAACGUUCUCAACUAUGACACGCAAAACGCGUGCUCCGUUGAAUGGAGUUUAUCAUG

Variants of: B1
Experiment: polymerase ribozyme fitness, log enrichment relative to wild type (log ratio); higher = more active; in vitro selection for triplet polymerase activity
Fewer inactive variants are shown than the library holds.

For orientation, consider the following solved cases.
A73C A113C; ≤ -4.2
U56A C96U A138U; -4.06

Lab note: next variant to report on.
Looking for the measured polymerase ribozyme fitness (log ratio) of G46U C93U , can you help?
-0.878
